Target: HCV NS5B (Hepatitis C virus genotype 1b, UniProt Q9WMX2)
Construct: The protein was expressed with an 18 amino acid C-terminal truncation to enhance the solubility; made in house; host or cells: E. coli BL21(DE3)
Sequence (Q9WMX2 2420-2992): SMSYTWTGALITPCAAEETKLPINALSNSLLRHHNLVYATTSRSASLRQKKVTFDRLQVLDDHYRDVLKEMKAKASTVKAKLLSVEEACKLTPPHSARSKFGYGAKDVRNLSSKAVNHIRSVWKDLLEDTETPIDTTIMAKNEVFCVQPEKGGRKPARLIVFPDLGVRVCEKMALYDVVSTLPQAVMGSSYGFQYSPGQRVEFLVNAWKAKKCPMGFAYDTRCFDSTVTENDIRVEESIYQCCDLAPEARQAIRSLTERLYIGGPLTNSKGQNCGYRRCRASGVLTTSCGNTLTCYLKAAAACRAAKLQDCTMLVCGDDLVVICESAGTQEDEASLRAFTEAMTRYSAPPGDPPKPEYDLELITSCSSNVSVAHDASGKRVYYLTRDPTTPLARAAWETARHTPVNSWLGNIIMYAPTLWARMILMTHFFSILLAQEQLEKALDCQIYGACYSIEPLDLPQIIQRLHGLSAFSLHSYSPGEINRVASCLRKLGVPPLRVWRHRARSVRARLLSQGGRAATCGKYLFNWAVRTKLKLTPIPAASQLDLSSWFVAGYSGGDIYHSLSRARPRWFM
Experiment: HCV NS5B RdRp enzyme assay
Format: biochemical
Details: Table 1; HCV NS5B RdRp genotype 1b
Protocol: HCV NS5B RdRp cloning, expression, and purification. The cDNA encoding the NS5B protein of HCV, genotype 1b, was cloned into the pET21a expression vector. The protein was expressed with an 18 amino acid C-terminal truncation to enhance the solubility. […] Standard HCV NS5B RdRp enzyme assay. […] Plates were read on a Packard Top Count NXT after >1 hr incubation at room temperature. […] IC50 values for compounds were determined using seven different [I]. […]
measuredEndpoint: IC50

Some compounds with known IC50 results, for comparison:
COc1ccc2c(c1)CC(C(=O)N1CC34CNCC3(COC4)C1)Cn1c-2c(C2CCCCC2)c2ccc(C(=O)NS(=O)(=O)C3CC3)cc21 (centres unmarked)	1.9 to 500 nM
CNC(=O)N1CC23CCC2(C1)CN(C(=O)[C@]12C[C@H]1c1cc(OC)ccc1-c1c(C4CCCCC4)c4ccc(C(=O)NS(=O)(=O)C(C)C)cc4n1C2)C3 (some centres unmarked) [drawing 99]	< 1.7 nM
COc1ccc2c(c1)[C@@H]1C[C@]1(C(=O)N1CC34CCC3(C1)CN(S(=O)(=O)C(C)C)C4)Cn1c-2c(C2CCCCC2)c2ccc(C(=O)NS(=O)(=O)N(C)C)cc21 (some centres unmarked)	1.9 to 500 nM
COc1ccc2c(c1)C1CC1(C(=O)N1CC34CNCC3(COC4)C1)Cn1c-2c(C2CCCCC2)c2ccc(C(=O)NS(=O)(=O)N(C)C)cc21 (centres unmarked)	1.9 to 500 nM
COc1ccc2c(c1)[C@@H]1C[C@]1(C(=O)N1CC34COCC3(CN(CC(F)(F)F)C4)C1)Cn1c-2c(C2CCCCC2)c2ccc(C(=O)NS(=O)(=O)N(C)C)cc21 (some centres unmarked)	1.9 to 500 nM

Turning now to a further record.
Return IC50 (reported value) for this compound: COc1ccc2c(c1)[C@@H]1C[C@]1(C(=O)N1CC34CNCC3(COC4)C1)Cn1c-2c(C2CCCCC2)c2ccc(C(=O)NS(=O)(=O)C(C)C)cc21 (some centres unmarked)
1.9 to 500 nM

* * *

Collected IC50 values appear next to each entry.
Molecular target: HCV NS5B (Hepatitis C virus genotype 1b, UniProt Q9WMX2)
Construct: The protein was expressed with an 18 amino acid C-terminal truncation to enhance the solubility; made in house; host or cells: E. coli BL21(DE3)
Assay: HCV NS5B RdRp enzyme assay
Format: biochemical
Conditions: Table 1; HCV NS5B RdRp genotype 1b

Some compounds with known IC50 results, for comparison:
COc1ccc2c(c1)CC(C(=O)N1CC34CN(C)CC3(CN(C)C4)C1)Cn1c-2c(C2CCCCC2)c2ccc(C(=O)NS(=O)(=O)N(C)C)cc21 (stereo not drawn)	1.9 to 500 nM
COc1ccc2c(c1)[C@@H]1C[C@]1(C(=O)N1CC34CCCC3(CN(C)C4)C1)Cn1c-2c(C2CCCCC2)c2ccc(C(=O)NS(=O)(=O)C(C)C)cc21 (stereo partly drawn)	1.9 to 500 nM
COc1ccc2c(c1)C1CC1(C(=O)N1CC34COCC3(CN(C)C4)C1)Cn1c-2c(C2CCCCC2)c2ccc(C(=O)NS(=O)(=O)N(C)C)cc21 (stereo not drawn) [drawing 61]	1.9 to 500 nM
COc1ccc2c(c1)[C@@H]1C[C@]1(C(=O)N1CC34COCC3(C1)CN(C1CC1)C4)Cn1c-2c(C2CCCCC2)c2ccc(C(=O)NS(=O)(=O)C(C)C)cc21 (stereo partly drawn)	2.5 to 500 nM
COc1ccc2c(c1)C=C(C(=O)N1CC34COCC3(C1)N(C(C)=O)C4)Cn1c-2c(C2CCCCC2)c2ccc(C(=O)NS(=O)(=O)C(C)C)cc21 (stereo not drawn)	1.9 to 500 nM

Turning now to a further record.
Return IC50 (reported value) for this compound: COc1ccc2c(c1)[C@@H]1C[C@]1(C(=O)N1CC34COCC3(C1)CN(S(=O)(=O)C(C)C)C4)Cn1c-2c(C2CCCCC2)c2ccc(C(=O)NS(=O)(=O)N(C)C)cc21 (stereo partly drawn)
< 1.7 nM

* * *

Target: HCV NS5B (Hepatitis C virus genotype 1b, UniProt Q9WMX2)
Construct: The protein was expressed with an 18 amino acid C-terminal truncation to enhance the solubility; made in house; host or cells: E. coli BL21(DE3)
Experiment: HCV NS5B RdRp enzyme assay
Assay type: biochemical
Settings: Table 1; HCV NS5B RdRp genotype 1b
pIC50: −log10 of the molar value.
measuredEndpoint: pIC50

Some compounds with known pIC50 results, for comparison:
COc1ccc2c(c1)[C@@H]1C[C@]1(C(=O)N1CC34CCC3(C1)N(C(C)=O)C4)Cn1c-2c(C2CCCCC2)c2ccc(C(=O)NS(=O)(=O)C(C)C)cc21 (stereo partly drawn)	6.30 to 8.72
COc1ccc2c(c1)[C@@H]1C[C@]1(C(=O)N1CC34CCC3(CN(C(=O)N3CCOCC3)C4)C1)Cn1c-2c(C2CCCCC2)c2ccc(C(=O)NS(=O)(=O)C(C)C)cc21 (stereo partly drawn)	6.30 to 8.72
COc1ccc2c(c1)C=C(C(=O)N1CC34COCC3(CN(C)C4)C1)Cn1c-2c(C2CCCCC2)c2ccc(C(=O)NS(=O)(=O)C3CC3)cc21 (stereo not drawn)	6.30 to 8.72
C=C(C)S(=O)(=O)NC(=O)c1ccc2c(C3CCCCC3)c3n(c2c1)C[C@@]1(C(=O)N2C[C@]4(COC)CN(C)C[C@]4(COC)C2)C[C@H]1c1cc(OC)ccc1-3	> 7.70

Return pIC50 (reported value) for this compound: COc1ccc2c(c1)C=C(C(=O)N1CC34COCC3(C1)N(C(C)=O)C4)Cn1c-2c(C2CCCCC2)c2ccc(C(=O)NS(=O)(=O)N(C)C)cc21 (stereo not drawn)
6.30 to 8.72

Return pIC50 (reported value) for this compound: COc1ccc2c(c1)C1CC1(C(=O)N1CC34CNCC3(CN(C)C4)C1)Cn1c-2c(C2CCCCC2)c2ccc(C(=O)NS(=O)(=O)N(C)C)cc21 (stereo not drawn)
6.30 to 8.72

* * *

Tested on: HCV replicon
Experiment: HCV Replicon Luciferase Reporter Assay (LE Assay)
Type: cell-based, HCV genotype 1b
Conditions: Hepatitis C virus, Huh-7, Table 2, HUH-7 cells, read-out: LE NeoLuc EC50
measuredEndpoint: EC50 (nM)
Return type: number; implicit unit nM.

Some compounds with known EC50 results, for comparison:
CNC(=O)N1CC23CCC2(C1)CN(C(=O)[C@]12C[C@H]1c1cc(OC)ccc1-c1c(C4CCCCC4)c4ccc(C(=O)NS(=O)(=O)C(C)C)cc4n1C2)C3 (stereo partly shown) [drawing 111]	60
COc1ccc2c(c1)C1CC1(C(=O)N1CC34COCC3(CN(C)C4)C1)Cn1c-2c(C2CCCCC2)c2ccc(C(=O)NS(=O)(=O)N(C)C)cc21 (stereo not shown) [drawing 106]	40
COc1ccc2c(c1)C1CC1(C(=O)N1CC34CNCC3(CN(C)C4)C1)Cn1c-2c(C2CCCCC2)c2ccc(C(=O)NS(=O)(=O)C3CC3)cc21 (stereo not shown)	2100

Turning now to a further record.
Quote HCV replicon EC50 for entry COc1ccc2c(c1)[C@@H]1C[C@]1(C(=O)N1CC34CCC3(CN(C)C4)C1)Cn1c-2c(C2CCCCC2)c2ccc(C(=O)NS(=O)(=O)C(C)C)cc21 (stereo partly shown) [drawing 108] .
6.96

* * *

Target: HCV NS5B (Hepatitis C virus genotype 1b, UniProt Q9WMX2)
Construct: The protein was expressed with an 18 amino acid C-terminal truncation to enhance the solubility; made in house; host or cells: E. coli BL21(DE3)
Assay: HCV NS5B RdRp enzyme assay
Format: biochemical
Conditions: Table 1; HCV NS5B RdRp genotype 1b
measuredEndpoint: IC50

COc1ccc2c(c1)[C@@H]1C[C@]1(C(=O)N1CC34CN(C)CC3(CN(C)C4)C1)Cn1c-2c(C2CCCCC2)c2ccc(C(=O)NS(=O)(=O)C(C)C)cc21 (stereo partly drawn)	1.9 to 500 nM
COc1ccc2c(c1)C1CC1(C(=O)N1CC34CN(C)CC3(CN(C)C4)C1)Cn1c-2c(C2CCCCC2)c2ccc(C(=O)NS(=O)(=O)C(C)C)cc21 (stereo not drawn)	< 2.3 nM
COc1ccc2c(c1)[C@@H]1C[C@]1(C(=O)N1CC34CNCC3(CN(C)C4)C1)Cn1c-2c(C2CCCCC2)c2ccc(C(=O)NS(=O)(=O)C(C)C)cc21 (stereo partly drawn)	1.9 to 500 nM

Return IC50 (reported value) for this compound: COc1ccc2c(c1)[C@@H]1C[C@]1(C(=O)N1CC34COCC3(CN(CC(F)(F)F)C4)C1)Cn1c-2c(C2CCCCC2)c2ccc(C(=O)NS(=O)(=O)C(C)C)cc21 (stereo partly drawn)
1.9 to 500 nM

Return IC50 (reported value) for this compound: COc1ccc2c(c1)C=C(C(=O)N1CC34CN(C)CC3(CN(C)C4)C1)Cn1c-2c(C2CCCCC2)c2ccc(C(=O)NS(=O)(=O)N(C)C)cc21 (stereo not drawn)
1.9 to 500 nM

Return IC50 (reported value) for this compound: COc1ccc2c(c1)[C@@H]1C[C@]1(C(=O)N1CC34CCC3(CN(C(=O)N3CCCC3)C4)C1)Cn1c-2c(C2CCCCC2)c2ccc(C(=O)NS(=O)(=O)C(C)C)cc21 (stereo partly drawn)
1.9 to 500 nM
